Value source: patent US8361998B2

Biological target: human cardiac ion channel proteins hKir3.1/Kir3.4 (Homo sapiens, UniProt P48544+P48549)
Construct: expressed in transfected cells
Assay: Atomic Absorption Screening (AAS) Rb efflux assay of hKir3.1/Kir3.4 block, carbachol/high K+ stimulated, 10-pt or 7-pt CR
Assay type: cell-based
Conditions: 10-pt CR (0.003 to 67 μmol/L), AAS Rb efflux, CHO-K1 cells expressing hKir3.1/Kir3.4; mean of >4 replicates; read-out: IKACh IC50 10-pt CR, AAS
Experimental: Human KCNJ3 encoding Kir3.1 (Genbank acc. No. NM_002239) was inserted between EcoRI and NotI in the pIRESneo3 vector (Clontech Laboratories, Inc. CA, USA). […] The blocking effects of compounds on the human cardiac ion channel proteins hKir3.1/Kir3.4 were assessed in CHO-K1 cells stably expressing the channel proteins using Atomic Absorption Screening (AAS). […]
ENDPOINT LABEL: IC50 (µM)
One number for each entry, in µM.

COMPOUND: CC[C@H](C)[C@@H](CN1CC(O)C1)N(C)C(=O)c1ccc(OC)cc1 [Example 29.6]
UNIT ABBREV: µM
ASSAY VALUE: 1.6
--
COMPOUND: COCCN(C(=O)c1ccc(Br)cc1)[C@H](CN1CCCC1)C(C)C [Example 15.5]
UNIT ABBREV: µM
ASSAY VALUE: 2.3
--
COMPOUND: CCC[C@@H](CN1CCC1)N(C)C(=O)c1ccc(Cl)cc1 [Example 1.2]
UNIT ABBREV: µM
ASSAY VALUE: 3.6
--
COMPOUND: CCC[C@@H](CN1CC(OC)C1)N(C)C(=O)c1ccc(Cl)cc1 [Example 31.2]
UNIT ABBREV: µM
ASSAY VALUE: 5.9

Here is another compound to look at.
The compound listed as Cc1cc(C(=O)N(C)[C@H](CN2CCCC2)C(C)C)ccc1F [Example 12.1] has a reported IC50 of 15

----------
For each record, write down the corresponding pIC50.
Molecular target: human cardiac ion channel proteins hKir3.1/Kir3.4 (Homo sapiens, UniProt P48544+P48549)
Construct: expressed in transfected cells
Sequence (P48549 1-501): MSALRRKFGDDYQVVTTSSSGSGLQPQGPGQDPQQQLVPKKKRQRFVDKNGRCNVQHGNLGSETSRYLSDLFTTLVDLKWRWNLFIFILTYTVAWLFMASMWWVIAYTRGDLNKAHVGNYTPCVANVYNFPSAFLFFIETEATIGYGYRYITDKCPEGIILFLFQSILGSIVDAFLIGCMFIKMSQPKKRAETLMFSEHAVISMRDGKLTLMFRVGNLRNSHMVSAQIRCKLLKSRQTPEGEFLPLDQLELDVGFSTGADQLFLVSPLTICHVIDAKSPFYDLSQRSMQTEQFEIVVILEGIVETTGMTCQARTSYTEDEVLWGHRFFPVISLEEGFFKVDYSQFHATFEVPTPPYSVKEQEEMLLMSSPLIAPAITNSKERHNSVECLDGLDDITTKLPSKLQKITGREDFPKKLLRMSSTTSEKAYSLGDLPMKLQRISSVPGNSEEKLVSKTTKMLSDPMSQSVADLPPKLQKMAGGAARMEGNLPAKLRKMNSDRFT
Sequence (P48544 1-419): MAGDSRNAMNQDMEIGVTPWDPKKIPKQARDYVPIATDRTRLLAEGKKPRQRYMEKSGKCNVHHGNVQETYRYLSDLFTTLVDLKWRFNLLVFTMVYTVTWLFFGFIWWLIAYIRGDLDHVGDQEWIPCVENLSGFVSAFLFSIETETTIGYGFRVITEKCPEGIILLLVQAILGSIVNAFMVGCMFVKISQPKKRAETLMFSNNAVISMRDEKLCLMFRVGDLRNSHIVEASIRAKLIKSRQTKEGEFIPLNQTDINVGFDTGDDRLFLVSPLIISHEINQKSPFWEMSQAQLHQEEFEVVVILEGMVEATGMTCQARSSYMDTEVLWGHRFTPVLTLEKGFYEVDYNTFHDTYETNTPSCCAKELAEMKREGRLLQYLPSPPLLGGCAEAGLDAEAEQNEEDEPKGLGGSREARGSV
Test: Atomic Absorption Screening (AAS) Rb efflux assay of hKir3.1/Kir3.4 block, carbachol/high K+ stimulated, 10-pt or 7-pt CR
Assay type: cell-based
Conditions: 10-pt CR (0.003 to 67 μmol/L), AAS Rb efflux, CHO-K1 cells expressing hKir3.1/Kir3.4; mean of >4 replicates; read-out: IKACh IC50 10-pt CR, AAS
Answers are plain numbers, as −log10 of the molar value.

COMPOUND STRUCTURE STRING: CN(C(=O)c1ccc(OC(F)F)cc1)[C@@H](CN1CC(O)C1)C1CCC1
ENDPOINT LABEL: pIC50
ASSAY VALUE: 5.06

Please give pIC50 for each item listed below.
1. CCC[C@@H](CN1CCC1)N(C)C(=O)c1ccc(Cl)cc1Cl
2. CN(C(=O)c1ccc(C#N)cc1F)[C@H](CN1CC(O)C1)C1CCCCC1
3. COc1cc(C(=O)N(C)[C@H](CN2CCCC(F)(F)C2)C(C)C)ccc1C
4. COc1ccc(C(=O)N(C)[C@H](CN2CC(O)C2)C2CCC2)cc1F

*A*
1. 5.64
2. 6.48
3. 4.74
4. 6.32

Parameters: items (list). Returns: pIC50 for each item.
1. CCC[C@@H](CN1CC(O)C1)N(C)C(=O)c1ccc(C)c(C)c1
2. CC(C)[C@@H](CN1CCCC(F)(F)C1)N(C)C(=O)c1ccc(Br)cc1
3. COC1CCN(C[C@H](C(C)C)N(C)C(=O)c2ccc(Cl)cc2)CC1

*A*
[6.36, 4.96, 5.89]
